molecular target: human epidermal growth factor receptor 2 (HER2) (human, UniProt P04626 23-1255); assay: cell-based or functional assay
MEASUREMENT KIND: % cells killed (maximal), A431 cells, anti-kappa-ETA'-conjugated antibody (%)
Numbers only, in %.

Fill in: % cells killed (maximal), A431 cells, anti-kappa-ETA'-conjugated antibody of HER2 antibody 153 (antibody, V domains shown) VH: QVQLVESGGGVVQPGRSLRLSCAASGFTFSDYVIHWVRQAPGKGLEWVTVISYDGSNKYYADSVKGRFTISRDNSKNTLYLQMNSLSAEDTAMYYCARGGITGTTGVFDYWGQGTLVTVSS VL: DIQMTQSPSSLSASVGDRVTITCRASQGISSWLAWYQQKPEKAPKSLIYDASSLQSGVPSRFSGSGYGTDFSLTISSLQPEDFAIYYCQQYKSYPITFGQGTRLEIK is ___
82.4
